TESTED ON: PRC2 containing wt EZH2 (Homo sapiens (Human))
TEST PROTOCOL: EZH2 biochemical assay (IC50), 3H-SAM incorporation into biotinylated H3 peptide
CONDITION SUMMARY: 30 pM PRC2 containing wt EZH2; 3-5 h pre-incubation; read-out: EZH2 (IC50)
pIC50: −log10 of the molar value.

| MOLECULE | pIC50 |
| --- | --- |
| CO[C@@H]1CN(C2CCC([C@@H](C)n3c(C)c(C(=O)NCc4c(SC)cc(C)[nH]c4=O)c4cccnc43)CC2)C[C@H]1F (single isomer, unassigned) [104 (isomer 2)] | 8.30 to 9.30 |
| CSc1cc(C)[nH]c(=O)c1CNC(=O)c1c(C)n([C@H](C)[C@H]2CC[C@H](N3CC(OC(F)F)C3)CC2)c2ncccc12 (single isomer, unassigned) [27 (isomer 1)] | > 9.30 |
| CSc1cc(C)[nH]c(=O)c1CNC(=O)c1c(C)n([C@H](C)C2CCC(N3CC(OC4CC4)C3)CC2)c2ncc(F)cc12 (single isomer, unassigned) [28 (isomer 2)] | > 9.30 |

---

TESTED ON: PRC2 containing wt EZH2 (Homo sapiens (Human), UniProt Q15910)
Sequence (Q15910 whole entry): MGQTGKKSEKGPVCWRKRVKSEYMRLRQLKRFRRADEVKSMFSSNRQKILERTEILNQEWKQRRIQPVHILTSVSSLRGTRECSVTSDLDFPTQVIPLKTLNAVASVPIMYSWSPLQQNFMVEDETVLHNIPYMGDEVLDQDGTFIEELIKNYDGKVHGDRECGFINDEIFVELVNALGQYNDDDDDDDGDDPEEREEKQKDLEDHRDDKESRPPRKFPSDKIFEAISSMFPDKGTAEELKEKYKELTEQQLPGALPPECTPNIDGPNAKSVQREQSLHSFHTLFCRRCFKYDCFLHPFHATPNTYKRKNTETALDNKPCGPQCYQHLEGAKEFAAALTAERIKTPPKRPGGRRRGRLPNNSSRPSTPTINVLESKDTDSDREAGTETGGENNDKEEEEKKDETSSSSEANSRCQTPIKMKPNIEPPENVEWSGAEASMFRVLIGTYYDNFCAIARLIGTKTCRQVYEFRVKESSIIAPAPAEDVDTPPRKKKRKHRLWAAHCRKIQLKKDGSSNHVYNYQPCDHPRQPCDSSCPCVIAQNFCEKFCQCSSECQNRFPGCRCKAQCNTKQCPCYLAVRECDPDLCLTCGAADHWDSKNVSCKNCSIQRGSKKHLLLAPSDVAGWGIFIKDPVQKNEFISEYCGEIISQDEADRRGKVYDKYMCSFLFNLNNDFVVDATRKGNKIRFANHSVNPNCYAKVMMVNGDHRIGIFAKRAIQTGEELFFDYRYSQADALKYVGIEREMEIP
Sequence (O75530 whole entry partner): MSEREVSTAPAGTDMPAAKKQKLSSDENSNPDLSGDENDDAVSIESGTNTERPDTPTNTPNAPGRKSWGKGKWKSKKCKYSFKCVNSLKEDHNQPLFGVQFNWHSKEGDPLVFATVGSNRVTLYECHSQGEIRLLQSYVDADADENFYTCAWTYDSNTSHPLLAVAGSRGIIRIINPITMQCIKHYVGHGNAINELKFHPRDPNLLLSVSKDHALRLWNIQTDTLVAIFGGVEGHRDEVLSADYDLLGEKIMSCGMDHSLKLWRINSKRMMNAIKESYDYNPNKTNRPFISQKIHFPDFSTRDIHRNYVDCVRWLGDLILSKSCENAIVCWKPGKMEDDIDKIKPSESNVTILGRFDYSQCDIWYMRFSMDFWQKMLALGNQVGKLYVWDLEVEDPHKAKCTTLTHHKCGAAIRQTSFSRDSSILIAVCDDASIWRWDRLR
Sequence (Q15022 whole entry partner): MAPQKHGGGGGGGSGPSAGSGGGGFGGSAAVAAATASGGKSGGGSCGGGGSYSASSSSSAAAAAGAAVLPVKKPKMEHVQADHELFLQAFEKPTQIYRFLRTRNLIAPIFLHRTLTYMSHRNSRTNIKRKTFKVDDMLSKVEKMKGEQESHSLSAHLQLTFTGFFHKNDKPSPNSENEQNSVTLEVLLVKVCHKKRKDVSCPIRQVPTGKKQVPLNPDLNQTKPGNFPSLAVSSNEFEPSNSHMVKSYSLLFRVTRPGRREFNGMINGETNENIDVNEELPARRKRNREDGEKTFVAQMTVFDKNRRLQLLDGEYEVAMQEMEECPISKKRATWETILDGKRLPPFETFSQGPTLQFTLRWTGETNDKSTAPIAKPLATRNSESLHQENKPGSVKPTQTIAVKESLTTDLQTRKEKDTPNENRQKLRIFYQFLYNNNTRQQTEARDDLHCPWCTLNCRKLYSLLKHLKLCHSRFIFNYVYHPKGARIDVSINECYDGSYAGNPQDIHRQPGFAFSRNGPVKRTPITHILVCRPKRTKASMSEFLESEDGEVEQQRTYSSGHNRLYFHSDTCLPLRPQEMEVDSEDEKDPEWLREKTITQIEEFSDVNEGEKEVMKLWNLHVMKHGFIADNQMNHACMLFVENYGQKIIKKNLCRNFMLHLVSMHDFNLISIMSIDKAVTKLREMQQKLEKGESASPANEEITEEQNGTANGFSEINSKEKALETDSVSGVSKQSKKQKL
Sequence (Q09028 whole entry partner): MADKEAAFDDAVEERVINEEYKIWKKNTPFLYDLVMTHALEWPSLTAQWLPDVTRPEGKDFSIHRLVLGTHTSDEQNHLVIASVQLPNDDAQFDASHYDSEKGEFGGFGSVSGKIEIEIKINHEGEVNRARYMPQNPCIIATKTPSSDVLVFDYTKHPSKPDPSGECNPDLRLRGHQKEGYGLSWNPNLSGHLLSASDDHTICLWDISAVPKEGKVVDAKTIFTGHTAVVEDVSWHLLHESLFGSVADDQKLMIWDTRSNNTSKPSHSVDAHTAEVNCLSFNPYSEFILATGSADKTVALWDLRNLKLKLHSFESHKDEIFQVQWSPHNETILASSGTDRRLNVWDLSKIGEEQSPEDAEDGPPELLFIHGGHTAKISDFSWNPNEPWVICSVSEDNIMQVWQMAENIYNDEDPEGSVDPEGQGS
Sequence (Q6ZN18 whole entry partner): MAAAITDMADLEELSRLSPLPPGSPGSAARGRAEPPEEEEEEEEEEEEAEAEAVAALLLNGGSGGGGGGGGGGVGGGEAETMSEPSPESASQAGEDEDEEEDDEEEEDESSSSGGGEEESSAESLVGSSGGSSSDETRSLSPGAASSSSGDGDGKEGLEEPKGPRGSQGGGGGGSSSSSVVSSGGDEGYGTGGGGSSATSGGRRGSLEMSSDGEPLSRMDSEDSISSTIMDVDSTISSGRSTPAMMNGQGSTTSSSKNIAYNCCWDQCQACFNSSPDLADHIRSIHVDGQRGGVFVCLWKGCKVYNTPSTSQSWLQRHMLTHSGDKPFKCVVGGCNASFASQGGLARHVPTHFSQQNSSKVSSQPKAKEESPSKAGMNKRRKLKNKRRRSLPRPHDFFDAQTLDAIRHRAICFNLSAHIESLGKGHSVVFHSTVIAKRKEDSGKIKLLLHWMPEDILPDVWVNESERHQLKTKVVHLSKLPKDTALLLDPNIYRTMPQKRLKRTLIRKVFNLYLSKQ
TEST PROTOCOL: EZH2 biochemical assay (IC50), 3H-SAM incorporation into biotinylated H3 peptide
CONDITION SUMMARY: EZH2 (IC50), 30 pM PRC2 containing wt EZH2; 3-5 h pre-incubation
pIC50: −log10 of the molar value.
MEASUREMENT KIND: pIC50

| COMPOUND | MEASUREMENT KIND | REPORTED RESULT |
| --- | --- | --- |
| CSc1cc(C)[nH]c(=O)c1CNC(=O)c1c(C)n([C@H](C)C2CCN(C3CC(F)C3)CC2)c2ccccc12 (single isomer, unassigned) [64 (isomer 1)] | pIC50 | > 9.30 |
| CSc1cc(C)[nH]c(=O)c1CNC(=O)c1c(C)n([C@H](C)C2CCC(O)CC2)c2ncccc12 (single isomer, unassigned) [36 (isomer 1)] | pIC50 | > 9.30 |
| CSc1cc(C)[nH]c(=O)c1CNC(=O)c1c(C)n([C@H](C)C2CCC(F)(F)CC2)c2ccccc12 | pIC50 | > 9.30 |
| CSc1cc(C)[nH]c(=O)c1CNC(=O)c1c(C)n([C@H](C)c2ccc(N(C)C)cc2)c2ccccc12 | pIC50 | > 9.30 |
| CSc1cc(C)[nH]c(=O)c1CNC(=O)c1c(C)n([C@H](C)C2OCC(N3CCC3(C)C)CO2)c2ccccc12 (single isomer, unassigned) [15 (isomer 1)] | pIC50 | > 9.30 |
| CSc1cc(C)[nH]c(=O)c1CNC(=O)c1c(C)n([C@H](C)C2CCC(OC3CN(C)C3)CC2)c2ncccc12 (single isomer, unassigned) [145 (isomer 1)] | pIC50 | 8.30 to 9.30 |

---

TESTED ON: PRC2 containing wt EZH2 (Homo sapiens (Human), UniProt Q15910)
TEST PROTOCOL: EZH2 biochemical assay (IC50), 3H-SAM incorporation into biotinylated H3 peptide
CONDITION SUMMARY: 30 pM PRC2 containing wt EZH2; 3-5 h pre-incubation; read-out: EZH2 (IC50)
pIC50: −log10 of the molar value.
MEASUREMENT KIND: pIC50

| MOLECULE | REPORTED RESULT |
| --- | --- |
| CC[C@H](C1CCC(N2CC(OC(F)F)C2)CC1)n1c(C)c(C(=O)NCc2c(SC)cc(C)[nH]c2=O)c2cccnc21 (some centres unmarked) | > 9.30 |
| CSc1cc(C)[nH]c(=O)c1CNC(=O)c1c(C)n([C@H](C)C2CCC(N(C)C)CC2)c2ncccc12 (single isomer, unassigned) [51 (isomer 1)] | > 9.30 |
| CSc1cc(C)[nH]c(=O)c1CNC(=O)c1c(C)n([C@@H](C)[C@H]2OC[C@H](N3CCC34COC4)CO2)c2ccccc12 (single isomer, unassigned; isomer 2) [151 (isomer 2)] | < 8.30 |
| CSc1cc(C)[nH]c(=O)c1CNC(=O)c1c(C)n([C@H](C)C2CCC(N3CC(OC(C)(C)C)C3)CC2)c2ncccc12 (single isomer, unassigned) [112 (isomer 1)] | > 9.30 |
| CSc1cc(C)[nH]c(=O)c1CNC(=O)c1c(C)n([C@H](C)C2CCC(N3CC(OC4CC4)C3)CC2)c2ncc(F)cc12 (single isomer, unassigned) [28 (isomer 1)] | > 9.30 |

---

Test system: H3K27me3 mark in HeLa cells (EZH2)
TEST PROTOCOL: H3K27me3 Alpha Hela Assay (AlphaLISA)
Format: cell-based
CONDITION SUMMARY: HeLa cells, 72 hrs; read-out: EZH2 Cell H3K27me3 Alpha HeLa (EC50 K27me3)
pEC50: −log10 of the molar value.
Quick reference for pEC50 among some compounds

| COMPOUND | pEC50 |
| --- | --- |
| CSc1cc(C)[nH]c(=O)c1CNC(=O)c1c(C)n([C@H](C)C2CCC(N3CC(F)C3)CC2)c2ccccc12 (single isomer, unassigned) [24 (isomer 2)] | > 8.00 |
| CSc1cc(C)[nH]c(=O)c1CNC(=O)c1c(C)n([C@H](C)C2OCC(N3CCC3(C)C)CO2)c2ccccc12 (single isomer, unassigned) [15 (isomer 2)] | < 7.00 |
| CSc1cc(C)[nH]c(=O)c1CNC(=O)c1c(C)n([C@H](C)C2CCC(NC3(CF)COC3)CC2)c2ncccc12 (single isomer, unassigned) [155 (isomer 2)] | 7.00 to 8.00 |
| CSc1cc(C)[nH]c(=O)c1CNC(=O)c1c(C)n([C@H](C)C2CCC(O)CC2)c2ncc(Cl)cc12 (single isomer, unassigned) [53 (isomer 2)] | > 8.00 |
| CSc1cc(C)[nH]c(=O)c1CNC(=O)c1c(C)n([C@H](C)C2CCC(N3CC(OC(F)F)C3)CC2)c2ccccc12 (single isomer, unassigned) [20 (isomer 2)] | 7.00 to 8.00 |
| CSc1cc(C)[nH]c(=O)c1CNC(=O)c1c(C)n([C@H](C)C2CCN(C3CC(F)C3)CC2)c2ccccc12 (single isomer, unassigned) [64 (isomer 2)] | 7.00 to 8.00 |
| CSc1cc(C)[nH]c(=O)c1CNC(=O)c1c(C)n([C@H](C)C2CCC(NC3(CF)COC3)CC2)c2ccccc12 (single isomer, unassigned) [154 (isomer 2)] | > 8.00 |
| CO[C@@H]1CN(C2CCC([C@@H](C)n3c(C)c(C(=O)NCc4c(SC)cc(C)[nH]c4=O)c4cccnc43)CC2)C[C@H]1F (single isomer, unassigned) [104 (isomer 2)] | < 7.00 |
| CSc1cc(C)[nH]c(=O)c1CNC(=O)c1c(C)n([C@H](C)C2CCC(N3CC(OC4CC4)C3)CC2)c2ncc(F)cc12 (single isomer, unassigned) [28 (isomer 2)] | 7.00 to 8.00 |
| CCCC(=O)OC1CCC([C@@H](C)n2c(C)c(C(=O)NCc3c(SC)cc(C)[nH]c3=O)c3ccccc32)CC1 (single isomer, unassigned) [143 (isomer 2)] | > 8.00 |

---

TESTED ON: PRC2 containing wt EZH2 (Homo sapiens (Human), UniProt Q15910)
TEST PROTOCOL: EZH2 biochemical assay (IC50), 3H-SAM incorporation into biotinylated H3 peptide
CONDITION SUMMARY: 30 pM PRC2 containing wt EZH2; 3-5 h pre-incubation; read-out: EZH2 (IC50)
IC50 overview

| MOLECULE | IC50 |
| --- | --- |
| CSc1cc(C)[nH]c(=O)c1CNC(=O)c1c(C)n([C@H](C)C2CCC(N3CC[C@@H](OC(F)F)C3)CC2)c2ncccc12 (stereo partly drawn) | < 0.5 nM |
| CSc1cc(C)[nH]c(=O)c1CNC(=O)c1c(C)n([C@H](C)C2CCN(C(=O)CN(C)C)CC2)c2ccccc12 | < 0.5 nM |
| CSc1cc(C)[nH]c(=O)c1CNC(=O)c1c(C)n([C@H](C)C2CCC(NC3(CF)COC3)CC2)c2ncncc12 (single isomer, unassigned) [156 (isomer 2)] | < 0.5 nM |

---

Tested on: H3K27me3 mark in HeLa cells (EZH2)
TEST PROTOCOL: H3K27me3 Alpha Hela Assay (AlphaLISA)
Type: cell-based
CONDITION SUMMARY: HeLa cells, 72 hrs; read-out: EZH2 Cell H3K27me3 Alpha HeLa (EC50 K27me3)
pEC50: −log10 of the molar value.

| COMPOUND | pEC50 |
| --- | --- |
| CSc1cc(C)[nH]c(=O)c1CNC(=O)c1c(C)n([C@H](C)C2CCC(N3CC(S(C)(=O)=O)C3)CC2)c2ccccc12 (single isomer, unassigned) [162 (isomer 2)] | < 7.00 |
| COC1CN(C2CCC([C@@H](C)n3c(C)c(C(=O)NCc4c(SC)cc(C)[nH]c4=O)c4cc(F)cnc43)CC2)C1 (single isomer, unassigned) [94 (isomer 1)] | > 8.00 |
| CSc1cc(C)[nH]c(=O)c1CNC(=O)c1c(C)n([C@H](C)C2CCC(N3CC(N(C)C)C3)CC2)c2ccccc12 (single isomer, unassigned) [148 (isomer 2)] | 7.00 to 8.00 |
| CSc1cc(C)[nH]c(=O)c1CNC(=O)c1c(C)n([C@H](C)C2CCC(N3CC(OC(F)F)C3)CC2)c2c(F)cccc12 (single isomer, unassigned) [121 (isomer 1)] | > 8.00 |
| CSc1cc(C)[nH]c(=O)c1CNC(=O)c1c(C)n([C@H](C)C2CCC(OC3CN(C)C3)CC2)c2ncccc12 (single isomer, unassigned) [145 (isomer 2)] | < 7.00 |
| CSc1cc(C)[nH]c(=O)c1CNC(=O)c1c(C)n([C@H](C)C2CCC(N3CC(F)(F)C3)CC2)c2ccccc12 (single isomer, unassigned) [23 (isomer 2)] | > 8.00 |
| COCCN(C)C1COC([C@@H](C)n2c(C)c(C(=O)NCc3c(SC)cc(C)[nH]c3=O)c3ccccc32)OC1 (single isomer, unassigned) [16 (isomer 2)] | < 7.00 |
| COC1CN(C2CCC([C@@H](C)n3c(C)c(C(=O)NCc4c(SC)cc(C)[nH]c4=O)c4cc(Cl)cnc43)CC2)C1 (single isomer, unassigned) [106 (isomer 2)] | 7.00 to 8.00 |
| CSc1cc(C)[nH]c(=O)c1CNC(=O)c1c(C)n([C@H](C)C2CCC(N3CC34COC4)CC2)c2ncccc12 (single isomer, unassigned) [139 (isomer 2)] | 7.00 to 8.00 |
| CSc1cc(C)[nH]c(=O)c1CNC(=O)c1c(C)n([C@H](C)C2CCC(N(C)C3(C)COC3)CC2)c2ccccc12 (single isomer, unassigned) [3 (isomer 2)] | 7.00 to 8.00 |
| CSc1cc(C)[nH]c(=O)c1CNC(=O)c1c(C)n([C@H](C)C2CCC(O)CC2)c2ncccc12 (single isomer, unassigned) [36 (isomer 2)] | > 8.00 |

Source listed as patent US11459315B2.
